target: SARS-CoV-2 spike RBD (WT) (Severe acute respiratory syndrome …, UniProt P0DTC2); experiment: BLI
MEASURED ENDPOINT: pKd
On this scale, pKd is minus log10 of a concentration expressed in M (mol/L).

Prompt: Give recorded pKd. C2695 (antibody, V domains shown) VH: EVQLVESGGGLAQPGRSLRLSCAASGFKFDDYAMHWVRQAPGQGLEWVSGIDWNSGIIGYADSVMGRFTISRDNAKKSLYLQMNSLRAEDTALYYCAKSGGFGEFKWFDPWGQGTLVTVSS VL: EIVMTQSPVTLSVSPGERATLSCRASQSVSGNLAWYQQKPGQAPRLLIYGASTRATGFPARFSGSGSGTEFTLTISRLQSEDFAVYYCQQYNKWPRTFGQGTKLEIK
Response: 6.88

Prompt: Dear colleague, please send me the reported pKd for D173 (antibody, V domains shown) VH: EVQLVQSGAEVKKPGESLRISCKGSGYSFTSYWISWVRQMPGKGLEWMGRIDPSDSYTNYSPSFQGHVTISADKSISTAYLQWSSLKASDTAMYYCASQGLVPAAIEIWDYWGQGTLVTVSS VL: EIVLTQSPATLSLSPGERATLSCRASQSVSSYLAWYQQKPGQAPRLLIYDASNRATGIPARFSGSGSGTDFTLTISSLEPEDFAVYYCQQHSNWPLTFGGGTKVEIK when you can.
Response: 7.22
